assay.protocol: label from the status in PepcDB records
endpoint.label: protein production

// known answers, use as guide
[
  {
    "sequence.content": "MQTIYRLKEPQIDREEDVRTIIQTFLFQFSEKAYGGPSFNRPACCFAPHIYGAGKTFVGQNFSAYLNIFAERECSNAQTFQQLHSSNDNPQPSELKVPWKHFAEKTLSVCFKLEESFSDAPFPSFRKALMYNIILNS",
    "protein production": "not failed"
  },
  {
    "sequence.content": "MLIGAIVAKDDTWLLWAIIIVWATVSLFLEQRYRWASTISGAIIALVGAMLLSNFKVIPMSAPVYDTVWDYIVPLSIPLLLFSSNILKIWKESRRLLVIFFVASIGTMIGTTVGFMILNQWIPYLNKIGAMMTGSYIGGGVNFAALSSKLETPSEMISSTVVADNSVMALYFMLLIALPSLPLIKKQFKSDYESKSTPESQQAYWEPKKIQLLDIAFSIASAVTLVAVSFKGADLIQQWMPQHNVVLTLIVSFLGDPYLLLTTLTLIVVAVWGDFFESLAGASEIGTFLIYIFFVVIGTPASFATIITTAPLLFIFVIIILVFNLGLSLIFGKIFGFKIEEILLASNATAGGPTTAAALAIGKGWTKVVGPILIIGTLGYVIGNYAGTLMYQLLTYLG",
    "protein production": "failed"
  },
  {
    "sequence.content": "MSRLSAAVVAIDGPAGTGKSSVSRRLARELGARFLDTGAMYRIVTLAVLRAGADPSDIAAVETIASTVQMSLGYDPDGDSCYLAGEDVSVEIRGDAVTRAVSAVSSVPAVRTRLVELQRTMAEGPGSIVVEGRDIGTVVFPDAPVKIFLTASAETRARRRNAQNVAAGLADDYDGVLADVRRRDHLDSTRAVSPLQAAGDAVIVDTSDMTEAEVVAHLLELVTRRSEAVR",
    "protein production": "not failed"
  },
  {
    "sequence.content": "MARSRVAGSKEAGPKVAGSRSRAAGQGRVGARLADGLRAYRMIAGMWIRSTMAYRASFVMTTFGNFGATALDFVAILLMFSQVDALGGYTLPEIAFLYGVAGIAFGLADLAIGSMDRLGRRVRDGTLDTLLVRPAPVLAQVAADRFALRRLGRITQGLLVFGYAVAALDIAWTPLKVLMVPFMMLSGGAIFAAVFVAGGAFQFVAQDASEVQNSFTYGGQTLLQYPPTVFAADLVRGVTFVVPIAFVNWLPALYVLGRPYPLDLPTWVAFTPPLVAAACCALAGLAWRAGLRSYRSTGS",
    "protein production": "failed"
  },
  {
    "sequence.content": "MKIPKIYVEGELNDGDRVAIEKDGNAIIFLEKDEEYSGNGKLLYQVIYDDLAKYMSLDTLKKDVLIQYPDKHTLTYLKAGTKLISVPAEGYKVYPIMDFGFRVLKGYRLATLESKKGDLRYVNSPVSGTVIFMNEIPSERANYVFYMLEE",
    "protein production": "not failed"
  }
]

For each of the sequences below, state protein production.
1. MITRLVLATAGAAVALGLPADVRAYEYEQEATTKLMTDMIVDLGGHDTVRRNSGKTVRCGDGGTRRVSIVRRGATTTYRGDYRNCRERGLTRDGFYEIVFKGDEIVSSTSKRSVNGELFDAAMAGNAAGVRKLIRARADVNYTESVDRTEGGTIDGVSPLMVATMAGSLDTVKLLVANGAWVNYLNSMAVNALWIAAHNGHPEIVRYLAGRGAYLNNSNVEDVTPLMAAAMNGHLAVVKFLVGAKADINAVHRDGDTALMFALAQNRTDIARFLIDAGADVAVRNRHGVTALLIAVAEGNEEIVRALLERKADVSVRTADGKSALDVARARGMDGIAKLLEAAGSY
2. MLGGIEAGGTKFVCAVGREDGTIIDRIEFPTKMPDETIEKVIQYFSQFSLQAIGIGSFGPVDNDKTSQTYGTITATPKAGWRHYPFLQTVKNEMKIPVGFSTDVNAAALGEFLFGEAKGLDSCLYITIGTGIGAGAIVEGRLLQGLSHPEMGHIYIRRHPDDVYQGKCPYHGDCFEGLASGPAIEARWGKKAADLSDIAQVWELEGYYIAQALAQYILILAPKKIILGGGVMQQKQVFSYIYQYVPKIMNSYLDFSELSDDISDYIVPPRLGSNAGIIGTLVLAHQALQAEAASGEVRS
3. QLQDGKGEKVMVEYSSPNTNKPLHLGHLRNNFLGYSISQILKANGFDVIKANLVNDRGIHICKSMIAYQKSGLGETPVSTGMKGDHLVGKYYVAFDKQLKKEVEALVAAGVEEDKAKKEAPILKEAQAMLLKWEQGDKEVYDLWKTMNGWVYDGFNASYKKIGVTFDHFYYESNTYLLGKDIVEEGLAKGVFNKRADGSVWIDLTAEGLDEKLVLRSDGTSVYITQDLGTAELKYKDFGCKRSVYVVGNEQDYHFIVLIHILKKLGKPYANGVYHMSYGMVDLPSGKMKSREGTVVDADDLVDEMIATAKERTLEQGKTDGFSEEQATHLYETLGLGALKYFLLKVDPKKRMMFNPEESIDFQ
4. MYPDLVHLGGADKYFEEILEIVNKIKLFGDFSNEEVRYLCSYMQCYAAPRDCQLLTEGDPGDYLLLILTGEVNVIKDIPNKGIQTIAKVGAGAIIGEMSMIDGMPRSASCVASLPTDFAVLSRDALYQLLANMPKLGNKVLIRLLQLLTARFRESYDRILPKTLGELI
5. MAMSGTYVTDVPLKGSAEKHYKRWRSENHLVPEAIGHLIQGVTVHDGDWDSHGTIKIWNYTRDGKEEVLKERIEMDDENMAVTINGLDGHVMEVLKVYVTTLHFIPESKDGCVCKITMVWEKRTEDSPEPIEFMKFVEQMIAHMDDHILQNQE
6. MEVSKIRIHDLPEEERPRERLIKNGPESLSNAELLGIVLRTGSREENVISLCSRILMEYNIKQLSLANVSKLMQVNGIGKAKAAQIAAVFELARRLETFVEEPKRKISSPKDVYTLMYPKMREQKKEKFITLYLDTKNQILKEEVVSIGSLNASIVHPREVFKSALMESSASVIMVHNHPSGDPSPSREDIMVTEKLVEGGKLLGIDILDHIIIGDGRYVSLKDEGFVK
7. MINMKVAISMDVDKISNSFEDCKYFLIVRIDDNEVKSTKVIFNDESGKKSIVKENVNAIICKNISEENYKKFSKKIEIYHAEGDDVDKNISLFIEGELSKISNP

Result ::
1. failed
2. not failed
3. failed
4. not failed
5. failed
6. not failed
7. not failed

====

assay.protocol: label from the status in PepcDB records

[
  {
    "sequence.content": "MDFLLRTITMNERRALGFGVAAVLLWSTVATAFKITLEHFTPTQMLTIASAVSILALAGVAAYQKTLSQLIDTFLANPLYYILLGAINPLAYYLVLFKSYDLLPASQAQPLNYSWAITLTLMAAVFLGQKIRKQDWIACVLGYLGVIVIATKGDVLALEFDSPLGVGLALFSTLLWAGYWILNTKNKADPILGLLLGFLVALPVAIGLSIYEGAPWAQIPMSGWAAVSYVGLFEMGVTFVLWLSALRLTQNTARISNLIFASPFISLLLLANIIGEEIHPSTLIGLIMIVCGLLIQQFFGKKEELQTEQ",
    "protein production": "failed"
  },
  {
    "sequence.content": "MEWLEQLLGKEWSLVPAGGVTGDAYIAQNGQQKLFLKRNTSPFLAVLSAEGIVPKLLWTRRVTNGDVISAQKWLPGQKLEPEDMKLERVAKLLKKIHSSKALVQMIQRLGKQPLHAQELLQQLQLVLRGDIRDEETIQQGLQYLMDSLKDIEYNEFVVCHCDVNHNNWLLSDEDELFLIDWDGAVIADPALDLGMLLYWYIPRQEWSEWLGYYDIEMDESLLKRMRWYVIAQTILSIQWHTTKKQQAEAEYWHQYLQQLLASE",
    "protein production": "failed"
  },
  {
    "sequence.content": "MGKEERAKWVNDEYAKAYEKMKSYGEQVKKADKPRVLYLKRSDLTLQGNDNFIKESMELAGADNIAAEAKSITMEEILKLDPEIILLSDFDKFLPQDLYENRIEGQDWSSVSAVVNKRVYKTPVGIYRWDAPGVETPLMMFWLGKMLQPEILEHHHHHH",
    "protein production": "failed"
  }
]

====

assay.protocol: label from the status in PepcDB records
endpoint.label: protein production

[
  {
    "sequence.content": "MSLAEGKWWRIMLVDTQLPALAASISALSQEGFDIIQCGNAIEAVPVAVKTHPHLIITEANMPKISGMDLFNSLKKNPQTASIPVIALSGRATAKEEAQLLDMGFIDFIAKPVNAIRLSARIKRVLKLLYEDLSAPPAREGHHHHHH",
    "readout.value": "not failed"
  },
  {
    "sequence.content": "MSLKAIGFEQPFKLSDGNLFKTFNLDIPEPKVHEILVKIQSISVNPVDTKQRLMDVSKAPRVLGFDAIGVVESVGNEVTMFNQGDIVYYSGSPDQNGSNAEYQLINERLVAKAPKNISAEQAVSLPLTGITAYETLFDVFGISRNRNENEGKTLLIINGAGGVGSIATQIAKAYGLRVITTASRNETIEWTKKMGADIVLNHKESLLNQFKTQGIELVDYVFCTFNTDMYYDDMIQLVKPRGHIATIVAFENDQDLNALKPKSLSFSHEFMFARPLNQTDDMIKHHEYLEDITNKVEQNIYQPTTTKVIEGLTTENIYQAHQILESNTMIGKLVINLNEGHHHHHH",
    "readout.value": "not failed"
  }
]
